Where these numbers come from: patent US20090054376A1

target: Human CB2 Receptor (Homo sapiens, UniProt P34972); construct: host or cells: Sf9 or HEK-293 cells (membranes); test: [35S]GTPγS-binding assay, hCB2; assay type: biochemical; conditions: GTPγS, Human CB2 Receptor; upper plateau of curve; NB = no binding
Sequence (P34972 whole entry): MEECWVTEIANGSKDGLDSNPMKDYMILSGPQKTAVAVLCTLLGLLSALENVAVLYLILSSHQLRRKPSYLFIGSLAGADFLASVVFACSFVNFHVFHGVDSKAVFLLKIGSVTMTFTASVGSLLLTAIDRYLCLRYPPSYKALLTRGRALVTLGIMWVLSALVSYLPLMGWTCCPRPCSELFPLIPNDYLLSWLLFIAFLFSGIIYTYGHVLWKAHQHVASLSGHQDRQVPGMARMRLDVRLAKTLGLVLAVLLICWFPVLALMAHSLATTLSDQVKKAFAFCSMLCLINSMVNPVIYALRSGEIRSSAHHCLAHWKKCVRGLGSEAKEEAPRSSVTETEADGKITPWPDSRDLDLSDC
quantity-name: Emax (%)
Form entry: value (%) — number only.

Study these solved cases before continuing.
CCCCCCC(C)(C)c1cc(O)c2c(c1)OC1C(O)CCCCC21 (single isomer, unassigned) [Compound C7S-29] = 60
CCCCCCC(C)(C)c1cc(O)c2c(c1)OC1C(=NO)CCCC21 (stereo not drawn) = 64

Now consider a different compound.
Q) Tell me measured Emax for CC1(C)CCC2c3c(O)cc(C4(CCc5ccccc5)SCCS4)cc3OC2C1 (stereo not drawn) please.
A) 19
